system: MDA-MB-231; experiment: Antiproliferative activity against human MDA-MB-231 cells at 1 uM after 48 to 72 hrs by MTT assay relative to control; assay type: functional
Please mark 1 (yes) if the recorded inhibition at 1 µM is equal to or greater than 20%, and 0 (no) if it falls below.

>>> df
                                test_smiles  classification
0  O=C(N/N=C/c1ccc2ccccc2c1)c1cc2c(cn1)[nH]c1ccccc12         1 (yes)
1  O=C(N/N=C/c1cccc(OCc2cccc(F)c2)c1)c1cc2c(cn1)[nH]c1ccccc12          0 (no)
2  COc1ccc(COc2cccc(/C=N/NC(=O)c3cc4c(cn3)[nH]c3ccccc34)c2)cc1         1 (yes)
3  O=C(N/N=C/c1cccc(OCc2ccc(Br)cc2)c1)c1cc2c(cn1)[nH]c1ccccc12         1 (yes)
4  c1ccc(OCc2nnc(-c3cc4c(cn3)[nH]c3ccccc34)o2)cc1          0 (no)

* * *

assay: Selectivity ratio of IC50 for HUVEC to IC50 for human A2780T cells; type: toxicity; settings: HUVEC versus A2780T cells
Property label: selectivity ratio

>>> print(df.to_string())
                                test_smiles  result
0  N#Cc1ccc(COc2cccc(/C=N/NC(=O)c3cc4c(cn3)[nH]c3ccccc34)c2)cc1    22.2

* * *

system: MDA-MB-231; test: Antiproliferative activity against human MDA-MB-231 cells at 1 uM after 48 to 72 hrs by MTT assay relative to control; assay type: functional
Property label: inhibition at 1 µM (%)

>>> df
                                test_smiles  tested_system      property_label  result
0  O=C(N/N=C/c1cccc(OCc2ccccc2F)c1)c1cc2c(cn1)[nH]c1ccccc12     MDA-MB-231  inhibition at 1 µM    24.7
1  O=C(N/N=C/c1ccc(-c2ccccc2)cc1)c1cc2c(cn1)[nH]c1ccccc12     MDA-MB-231  inhibition at 1 µM    29.3
2  CN(Cc1ccccc1)Cc1nnc(-c2cc3c(cn2)[nH]c2ccccc23)o1     MDA-MB-231  inhibition at 1 µM   -3.26
3  O=C(N/N=C/c1cccc(OCc2ccc(Cl)cc2)c1)c1cc2c(cn1)[nH]c1ccccc12     MDA-MB-231  inhibition at 1 µM    30.7
4  O=C(N/N=C/c1c[nH]c2ccccc12)c1cc2c(cn1)[nH]c1ccccc12     MDA-MB-231  inhibition at 1 µM     7.1

* * *

assay: Selectivity ratio of IC50 for HUVEC to IC50 for human A549/TR cells; format: toxicity; settings: HUVEC versus A549/TR cells
Property label: selectivity ratio

                                test_smiles  result
0  N#Cc1ccc(COc2cccc(/C=N/NC(=O)c3cc4c(cn3)[nH]c3ccccc34)c2)cc1    28.3

* * *

assay: Selectivity ratio of IC50 for HUVEC to IC50 for human A2780S cells; assay type: toxicity; conditions: HUVEC versus A2780S cells
Property label: selectivity ratio

>>> print(df.to_string())
                                test_smiles     property_label  result
0  N#Cc1ccc(COc2cccc(/C=N/NC(=O)c3cc4c(cn3)[nH]c3ccccc34)c2)cc1  selectivity ratio    29.3

* * *

tested on: MDA-MB-231; test: Antiproliferative activity against human MDA-MB-231 cells at 1 uM after 48 to 72 hrs by MTT assay relative to control; type: functional
# maps each entry to its inhibition at 1 µM
Property label: inhibition at 1 µM (%)

In [3]: df
Out[3]:
                                 test_smiles  result
 0  O=C(N/N=C/c1cccc(Oc2ccccc2)c1)c1cc2c(cn1)[nH]c1ccccc12    6.76
 1  Cc1ccc(COc2cccc(/C=N/NC(=O)c3cc4c(cn3)[nH]c3ccccc34)c2)cc1    28.7
 2  Cc1ccccc1COc1cccc(/C=N/NC(=O)c2cc3c(cn2)[nH]c2ccccc23)c1    24.8
 3  COc1ccc(/C=N/NC(=O)c2cc3c(cn2)[nH]c2ccccc23)cc1OCc1ccccc1    22.2
 4  N#Cc1ccccc1COc1cccc(/C=N/NC(=O)c2cc3c(cn2)[nH]c2ccccc23)c1    20.7
 5  O=C(N/N=C/c1cccc(OCc2ccc([N+](=O)[O-])cc2)c1)c1cc2c(cn1)[nH]c1ccccc12    20.2
 6  O=C(N/N=C/c1cccc(OCc2cccc(Cl)c2)c1)c1cc2c(cn1)[nH]c1ccccc12    15.6
 7  O=C(N/N=C/c1cccc(OCc2ccc(C(F)(F)F)cc2)c1)c1cc2c(cn1)[nH]c1ccccc12    24.4
 8  C/C(=N\NC(=O)c1cccc(S(=O)(=O)N2CCOCC2)c1)c1cc(Cl)ccc1O    41.3
 9  O=Cc1ccc(OCc2nnc(-c3cc4c(cn3)[nH]c3ccccc34)o2)cc1    2.98
10  COC(=O)c1ccc(COc2cccc(/C=N/NC(=O)c3cc4c(cn3)[nH]c3ccccc34)c2)cc1    31.8
11  N#Cc1ccc(COc2cccc(/C=N/NC(=O)c3cc4c(cn3)[nH]c3ccccc34)c2)cc1    29.6
12  O=C(N/N=C/c1cccc(OCc2ccccc2Cl)c1)c1cc2c(cn1)[nH]c1ccccc12    28.6
13  Cc1cccc(COc2cccc(/C=N/NC(=O)c3cc4c(cn3)[nH]c3ccccc34)c2)c1    22.7
14  N#Cc1cccc(COc2cccc(/C=N/NC(=O)c3cc4c(cn3)[nH]c3ccccc34)c2)c1    21.9
15  O=C(N/N=C/c1cccc(OCc2ccc(F)cc2)c1)c1cc2c(cn1)[nH]c1ccccc12    27.2
16  O=C(N/N=C/c1cccc(O)c1)c1cc2c(cn1)[nH]c1ccccc12    8.13
17  O=C(N/N=C/c1cccc(OCc2ccccc2)c1)c1cc2c(cn1)[nH]c1ccccc12    25.6
18  O=Cc1cccc(OCc2nnc(-c3cc4c(cn3)[nH]c3ccccc34)o2)c1    9.83

* * *

# maps each entry to its Ratio IC50
assay: Resistance index, ratio of IC50 for human A2780T cells to IC50 for human A2780S cells; format: functional

Test smiles	Ratio IC50
CC[C@]1(O)C[C@@H]2CN(CCc3c([nH]c4ccccc34)[C@@](C(=O)OC)(c3cc4c(cc3OC)N(C)[C@H]3[C@@](O)(C(=O)OC)[C@H](OC(C)=O)[C@]5(CC)C=CCN6CC[C@]43[C@@H]65)C2)C1	1073.76
CC(=O)O[C@H]1C(=O)[C@@]2(C)[C@H]([C@H](OC(=O)c3ccccc3)[C@]3(O)C[C@H](OC(=O)[C@H](O)[C@@H](NC(=O)c4ccccc4)c4ccccc4)C(C)=C1C3(C)C)[C@]1(OC(C)=O)CO[C@@H]1C[C@@H]2O	3852.53
COc1cc2c(c(OC)c1OC)-c1ccc(OC)c(=O)cc1[C@@H](NC(C)=O)CC2	1630.02
N#Cc1ccc(COc2cccc(/C=N/NC(=O)c3cc4c(cn3)[nH]c3ccccc34)c2)cc1	1.32

* * *

test system: NCI-H460; assay: Antiproliferative activity against human H460 cells at 1 uM after 48 to 72 hrs by MTT assay relative to control; format: functional
Classes (inhibition at 1 µM): category 1 (below 20%), category 2 (20% to below 40%), category 3 (40% or more)

>>> print(df.to_string())
                                test_smiles  classification
0  CN(Cc1ccccc1)Cc1nnc(-c2cc3c(cn2)[nH]c2ccccc23)o1      category 1
1  O=C(N/N=C/c1cccc(OCc2ccc([N+](=O)[O-])cc2)c1)c1cc2c(cn1)[nH]c1ccccc12      category 2
2  O=C(N/N=C/c1cccc(OCc2ccc(C(F)(F)F)cc2)c1)c1cc2c(cn1)[nH]c1ccccc12      category 2
3  Cc1ccccc1COc1cccc(/C=N/NC(=O)c2cc3c(cn2)[nH]c2ccccc23)c1      category 2
4  O=C(N/N=C/c1cccc(OCc2ccccc2Cl)c1)c1cc2c(cn1)[nH]c1ccccc12      category 3
5  O=C(N/N=C/c1cccc(OCc2ccccc2F)c1)c1cc2c(cn1)[nH]c1ccccc12      category 3
6  N#Cc1ccc(COc2cccc(/C=N/NC(=O)c3cc4c(cn3)[nH]c3ccccc34)c2)cc1      category 3
7  O=C(N/N=C/c1cccc(OCc2ccc(F)cc2)c1)c1cc2c(cn1)[nH]c1ccccc12      category 2
8  O=C(N/N=C/c1c[nH]c2ccccc12)c1cc2c(cn1)[nH]c1ccccc12      category 1
